# credit: patent US20260258025A1

Tested on: TDP-43 aggregation
Assay: TDP-43 aggregation assay in SY5Y TDP-43WT cells (high content imaging)
Type: cell-based
Settings: Homo sapiens, tetracycline induction 24 hrs, 1 hour compound pre-treatment, sodium arsenite 23 hrs, 8-point dose curve, percentage of cells with TDP-43 aggregates, read-out: IC50, Inhibition of TDP-43 Aggregation
Assay readout: IC50

Examples from the recorded data:
Compound | IC50
N[C@H]1CCN(C(=O)c2sc(-c3ccc(C4CCN(C5CCOCC5)CC4)c(Cl)c3)cc2Cl)C1 | < 500 nM
CN1CCC(c2ccc(-c3cc(Cl)c(C(=O)N4CC[C@H](N)C4)s3)cc2F)CC1 | < 500 nM

Query: Fill in: IC50 of C#CCOCCN1CCC(c2ccc(-c3cc(C)c(C(=O)N4CC[C@H](N)C4)s3)cc2)CC1 is ___
Result: < 500 nM

Query: Here is the next compound: Cc1cc(-c2ccc3c(c2)CCCC3N(C)C)sc1C(=O)N1CC[C@H](N)C1 (stereo partly shown)
Result: 2000 to 6000 nM
